# experiment.description: Caspase-3/7 induction in CHO-K1 cells by small molecules, qHTS cell viability counter screen (AID 1346979); further: nearly all actives have a fitted effect of over 35% in size
# stated.conditions: CellTiter-Fluor fluorescence, 17 h; series mostly up to 92.4 µM
Inconclusive results are not listed. Calls of active or inactive are those of the source. The call rests on the fitted dose curve; in most records, active means well fitted cell-killing curve with a large enough effect in the repeat runs; inconclusive means weak or mixed curves, or effect the other way; inactive means no such curve, though single readings can be large or run the other way.
Pick from t (active), f (inactive) when you respond.

# count of solved cases: 4
{"columns": ["molecule", "assigned.category"],
 "data": [
  ["CCCCCCCCCC(=O)OC", "f"],
  ["c1ccc2c(c1)c1cccc3ccc4cccc2c4c31", "f"],
  ["C[Si](C)(C)O[Si](C)(C)C", "f"],
  ["CC1=CC2C3CC(C=C3C)C2C1 (stereo unspecified)", "f"]
]}

Input line: GET /call?item= CC1=CCC(C(C)(C)O)CC1 (stereo unspecified) returns the recorded outcome of this test.
Output line: f

Input line: GET /call?item= CCC(C)c1ccccc1O (stereo unspecified) returns the recorded outcome of this test.
Output line: f

Input line: GET /call?item= `CCOCCOCCO` returns the recorded outcome of this test.
Output line: f

Input line: GET /call?item= CCCCC(CC)COP(=O)(OCC(CC)CCCC)OCC(CC)CCCC (stereo unspecified) returns the recorded outcome of this test.
Output line: f

Input line: GET /call?item= `c1ccc(Nc2ccccc2)cc1` returns the recorded outcome of this test.
Output line: f

Input line: GET /call?item= `CN(C)c1nc(N(C)C)nc(N(C)C)n1` returns the recorded outcome of this test.
Output line: f

Input line: GET /call?item= `NNc1ccc(C(=O)O)cc1` returns the recorded outcome of this test.
Output line: f

Input line: GET /call?item= COc1ccc(OC)c(C(O)CNC(=O)CN)c1 (stereo unspecified) returns the recorded outcome of this test.
Output line: f

Input line: GET /call?item= CC(=O)C1(C)CC2=C(CCCC2(C)C)CC1C (stereo unspecified) returns the recorded outcome of this test.
Output line: f

Input line: GET /call?item= `CCCCNS(=O)(=O)c1ccccc1` returns the recorded outcome of this test.
Output line: f

Input line: GET /call?item= `O=S(=O)(O)c1ccc(O)cc1` returns the recorded outcome of this test.
Output line: f

Input line: GET /call?item= `COC(=O)c1ccccc1` returns the recorded outcome of this test.
Output line: f

----------
# target: Estrogen receptor (Homo sapiens)
# experiment.description: qHTS assay to identify small molecule agonists of the estrogen receptor alpha (ER-alpha) signaling pathway (AID 743075);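 further: HEK293 GripTite cells with ER-alpha and UAS-driven beta-lactamase reporter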
# stated.conditions: HEK293 ER-alpha-UAS-bla, beta-lactamase FRET ratio, 18 h; series mostly up to 70.1 µM
Records with an inconclusive call do not appear. Activity calls are given as the source filed them. Calls follow the shape of the full dose curve.
measured.property: outcome

// known answers, use as guide
{"columns": ["compound", "outcome"],
 "data": [
  ["CCCCC(CC)COC(=O)c1ccc(N(C)C)cc1 (configuration not stated)", "inactive"],
  ["Cn1cnc([N+](=O)[O-])c1Sc1ncnc2nc[nH]c12", "inactive"],
  ["O=C(Nc1ccc([N+](=O)[O-])cc1Cl)c1cc(Cl)ccc1O", "inactive"],
  ["CCC(C)CO (configuration not stated)", "inactive"],
  ["O=C(/C=C/C=C/c1ccc2c(c1)OCO2)N1CCCCC1", "inactive"]
]}

Hi! Can you tell me outcome for each of these compounds?
1. CN(C)CCN(Cc1cccs1)c1ccccn1
2. O=C(Nc1ccc(Cl)cc1)Nc1ccc(Cl)c(Cl)c1
3. COC(=O)C1=C(C)NC(C)=C(C(=O)OCCN(C)Cc2ccccc2)C1c1cccc([N+](=O)[O-])c1 (configuration not stated)
4. CCC(C)(O)CCCC(C)C (configuration not stated)

Output line:
["inactive", "inactive", "inactive", "inactive"]

Hi! Can you tell me outcome for each of these compounds?
1. c1ccc2c(c1)c1cccc3ccc4cccc2c4c31
2. CN1C(C(=O)Nc2ccccn2)=C(O)c2ccccc2S1(=O)=O
3. COc1ccc(OC)c(C(O)CNC(=O)CN)c1 (configuration not stated)

Output line:
1. inactive
2. inactive
3. inactive

Hi! Can you tell me outcome for each of these compounds?
1. Cc1c(C(N)=O)cc([N+](=O)[O-])cc1[N+](=O)[O-]
2. C=CC(C)(CCC=C(C)C)OC(C)=O (configuration not stated)
3. Cc1ccc2c(n1)Oc1ccc(C(C)C(=O)OCC(=O)N(C)C)cc1C2 (configuration not stated)
4. CN(C)CCC=C1c2ccccc2CCc2ccccc21
5. C=C(C)C1CC=C(C)CC1 (configuration not stated)
6. COC(C)COC(C)COC(C)CO (configuration not stated)
7. CCCCc1oc2ccccc2c1C(=O)c1cc(I)c(OCCN(CC)CC)c(I)c1
8. CC1=CC2C3CC(C=C3C)C2C1 (configuration not stated)

Output line:
inactive
inactive
inactive
inactive
inactive
inactive
inactive
inactive

Hi! Can you tell me outcome for each of these compounds?
1. CC(C)(C)NC(=O)[C@H]1CC[C@H]2[C@@H]3CC[C@H]4NC(=O)C=C[C@]4(C)[C@H]3CC[C@]12C
2. O=C(O)c1ccccc1Nc1cccc(C(F)(F)F)c1
3. CNCCCC12CCC(c3ccccc31)c1ccccc12
4. Nc1ccccc1N
5. O=C(COc1ccc(Cl)cc1)N1CCN(Cc2ccc3c(c2)OCO3)CC1
6. Nc1ncnc2nc[nH]c12

Output line:
1. inactive
2. inactive
3. inactive
4. inactive
5. inactive
6. inactive

The compound identified as CC(C)=CCCC(C)CCO (configuration not stated) registered its outcome at inactive
